Experiment: Inhibition of porcine brain tubulin polymerization after 1 hr in presence of GTP by fluorescence assay
Design: species or system Sus scrofa
assay.metric: pIC50
For clarity, pIC50 is expressed as the negative log10 of concentration in mol/L.

# input Which pIC50 is listed for `COc1ccc(C(=O)/C=C/c2ccc(OCCCN3CCCCC3)c(OC)c2)cc1` ?
# output 5.02

* * *

Test system: HCT-116
Assay: Antiproliferative activity against human HCT116 cells after 48 hrs by MTT assay
Type: functional, cell-based
Conditions: HCT-116, 48 h
assay.metric: IC50 (µM)
Output spec: scalar in µM, unitless text.

Before answering, review these 5 worked examples.
compound	units	IC50
COc1cc(/C=C/C(=O)c2ccc(Cl)cc2Cl)ccc1OCCCN1CCc2ccccc21	µM	19.2
COc1cc(/C=C/C(=O)c2ccccc2OC)ccc1OCCCN1CC(C)OC(C)C1 (stereo not given)	µM	6.48
COc1ccc(C(=O)/C=C/c2ccc(OCCCn3nc(C)cc3C)c(OC)c2)cc1	µM	3.97
COc1ccc(C(=O)/C=C/c2ccc(OCCCN3CCCCC3)c(OC)c2)cc1	µM	1.73
COc1ccc(C(=O)/C=C/c2ccc(OCCCN3CCOCC3)c(OC)c2)cc1	µM	6.78

# input Which IC50 is listed for `COc1cc(/C=C/C(=O)c2ccc(Cl)cc2Cl)ccc1OCCN1CCOCC1` ?
# output 19.9

* * *

The compounds listed here are annotated with their pIC50.
Test system: HCT-116
Assay: Antiproliferative activity against human HCT116 cells after 48 hrs by MTT assay
Type: functional, cell-based
Details: HCT-116, 48 h
pIC50: −log10 of the molar value.

compound	assay.metric	measured.result
COc1cc(/C=C/C(=O)c2ccc(Cl)cc2)ccc1OCCCN1CCCc2ccccc21	pIC50	< 4.70
COc1cc(/C=C/C(=O)c2ccc(Br)cc2)ccc1OCCCCN1CCCCC1	pIC50	< 4.70
COc1cc(/C=C/C(=O)c2ccc(Cl)cc2Cl)ccc1OCCCN1CC(C)OC(C)C1 (centres undefined)	pIC50	< 4.70
COc1cc(/C=C/C(=O)c2ccccc2)ccc1OCCCN1CCCc2ccccc21	pIC50	< 4.70
COc1ccc(C(=O)/C=C/c2ccc(OCCN3CCOCC3)c(OC)c2)cc1	pIC50	< 4.70
COc1cc(/C=C/C(=O)c2ccc(Cl)cc2Cl)ccc1OCCCN1CCCc2ccccc21	pIC50	< 4.70

Attention now turns to another entry.
# input Which pIC50 is listed for `COc1ccc(C(=O)/C=C/c2ccc(OCCCN3CCc4ccccc43)c(OC)c2)cc1` ?
# output < 4.70

* * *

Test system: HCT-116
Assay: Antiproliferative activity against human HCT116 cells after 48 hrs by MTT assay
Assay type: functional, cell-based
Conditions: HCT-116, 48 h
assay.metric: IC50

Before answering, review these 5 worked examples.
compound	IC50
COc1cc(/C=C/C(=O)c2ccccc2O)ccc1OCCCN1CCCCC1	2.01 µM
COc1cc(/C=C/C(=O)c2ccc(Br)cc2)ccc1OCCCN1CCCCC1	> 20 µM
COc1ccc(C(=O)/C=C/c2ccc(OCCCN3CC(C)OC(C)C3)c(OC)c2)cc1 (configuration not stated)	7.87 µM
COc1cc(/C=C/C(=O)c2ccc(Br)cc2)ccc1OCCN1CCOCC1	> 20 µM
COc1ccc(/C=C\c2cc(OC)c(OC)c(OC)c2)cc1O	9.12 µM

# input Which IC50 is listed for `COc1cc(/C=C/C(=O)c2ccc(C(F)(F)F)cc2)ccc1OCCN1CCOCC1` ?
# output > 20 µM

# input Which IC50 is listed for `COc1cc(/C=C/C(=O)c2ccccc2)ccc1OCCCCN1CCCCC1` ?
# output > 20 µM

# input Which IC50 is listed for `COc1cc(/C=C/C(=O)c2ccc(Cl)cc2Cl)ccc1OCCCCN1CCCCC1` ?
# output > 20 µM

# input Which IC50 is listed for COc1cc(/C=C/C(=O)c2ccc(C)cc2)ccc1OCCCN1CC(C)OC(C)C1 (configuration not stated) ?
# output 5.45 µM

# input Which IC50 is listed for `COc1ccc(C(=O)/C=C/c2ccc(OCCCN3CCCc4ccccc43)c(OC)c2)cc1` ?
# output > 20 µM

# input Which IC50 is listed for `COc1cc(/C=C/C(=O)c2ccc(Cl)cc2)ccc1OCCCCN1CCCCC1` ?
# output > 20 µM

# input Which IC50 is listed for `COc1cc(/C=C/C(=O)c2ccc(Br)cc2)ccc1OCCCN1CCCc2ccccc21` ?
# output > 20 µM
